tested on: UACC-257 melanoma; experiment: NCI tumour cell line growth inhibition, 48 h

[
  {
    "molecule": "Oc1cccc2c(Br)ccnc12",
    "TGI": "16.1 µM"
  },
  {
    "molecule": "O=C1C(Cl)=C(Cl)C(=O)N1c1ccc(Cl)c(Cl)c1Cl",
    "TGI": "> 100 µM"
  },
  {
    "molecule": "CCCCCCCC(=O)[O-].CCCCCCCC(=O)[O-].N.N.N.N.[Co+3].[O-][Cl+3]([O-])([O-])[O-]",
    "TGI": "> 100 µM"
  },
  {
    "molecule": "COC(=O)/C(C#N)=C1\\CCC(OC)N1C (stereo unspecified)",
    "TGI": "> 100 µM"
  },
  {
    "molecule": "C=C(C(=O)OC)[C@@H]1CC2OC1C(=O)C(C)CCC/C(C)=C/CC[C@@]2(C)O (stereo partly specified)",
    "TGI": "76.3 µM"
  },
  {
    "molecule": "Cc1cc(C)nc(NS(=O)(=O)c2ccc(NNc3c4ccccc4nc4c(C(=O)Nc5ccc(S(=O)(=O)Nc6cc(C)on6)cc5)cccc34)cc2)n1",
    "TGI": "> 100 µM"
  },
  {
    "molecule": "Cc1ccccc1-n1c(=S)[nH]c2c(sc(=O)n2-c2ccccc2C)c1=O",
    "TGI": "> 100 µM"
  },
  {
    "molecule": "O=c1[nH]n(CCc2ccccc2CCl)c2ccc([N+](=O)[O-])cc12",
    "TGI": "> 100 µM"
  },
  {
    "molecule": "COc1ccc(Br)c(CN2CCc3ccccc32)c1OS(=O)(=O)c1ccc(C)cc1",
    "TGI": "> 100 µM"
  },
  {
    "molecule": "CCOC(=O)CCc1cn2cc(Br)nc(OC)c2n1",
    "TGI": "> 100 µM"
  },
  {
    "molecule": "COc1ccc(NC(=O)CC(=O)N/N=C(\\C)c2cc3ccccc3oc2=O)cc1",
    "TGI": "> 100 µM"
  },
  {
    "molecule": "COc1cc(F)c(F)cc1C(=O)c1cnc(NC2CCN(S(C)(=O)=O)CC2)nc1N",
    "TGI": "> 22.7 µM"
  },
  {
    "molecule": "COc1ccc(OC)c2c(C)ccnc12",
    "TGI": "> 92.5 µM"
  },
  {
    "molecule": "COc1ccc(Nc2ncnc3ccc(-c4cncc(NS(C)(=O)=O)c4)cc23)cc1Cl",
    "TGI": "14 µM"
  },
  {
    "molecule": "CC12CCC(=O)C(O1)C1C(=O)c3ccc4c(ccc5ccccc54)c3C(=O)C12 (stereo unspecified)",
    "TGI": "8.15 µM"
  },
  {
    "molecule": "CCCC(O)c1cn(-c2cccc(S(=O)(=O)O)c2)nn1 (stereo unspecified)",
    "TGI": "> 100 µM"
  },
  {
    "molecule": "CN1CCN(Cc2ccc(NC(=O)c3[nH]ncc3Nc3ncnc4[nH]ccc34)cc2)CC1",
    "TGI": "17.8 µM"
  },
  {
    "molecule": "Oc1ccc2ccccc2c1OCc1nnc(CCCCCCCCc2nnc(COc3c(O)ccc4ccccc34)n2Nc2ccccc2)n1Nc1ccccc1",
    "TGI": "> 80 µM"
  },
  {
    "molecule": "Cc1ccc(S(=O)(=O)n2cc([C@@]3(O)C[C@H](CSC#N)OC3=O)c3ccccc32)cc1",
    "TGI": "56.4 µM"
  },
  {
    "molecule": "O=S(=O)(/N=S(/Nc1ccccc1)C(F)(F)Cl)c1ccccc1 (stereo unspecified)",
    "TGI": "> 100 µM"
  },
  {
    "molecule": "Cc1cc(=O)[nH]c(N/N=C/c2ccccc2O)n1",
    "TGI": "34.7 µM"
  }
]

* * *

tested on: RXF-631 renal; experiment: NCI tumour cell line growth inhibition, 48 h
Items are presented alongside their recorded TGI.

[
  {
    "molecule": "CCOC(=O)[C@@]12C(C)=CC(=O)O[C@]1(C)C1C(=O)NC(=O)C12 (stereo partly specified)",
    "TGI": "> 100 µM"
  },
  {
    "molecule": "O=C1C(Cl)=C(Cl)C(=O)N1c1ccc(Cl)c(Cl)c1Cl",
    "TGI": "> 100 µM"
  },
  {
    "molecule": "Cc1cc(Cl)cc2c1NC(=O)C2(O)CC(=O)c1ccc(Br)cc1 (stereo unspecified)",
    "TGI": "> 100 µM"
  },
  {
    "molecule": "Cc1ccc2oc(=O)c3c(O)c4cccc(OC5OC(C)C6O[C@@H](c7ccccc7)OC6C5OC5OC(C)C(O)C(O)C5O)c4c4oc(=O)c1c2c34 (stereo partly specified)",
    "TGI": "4.4 µM"
  },
  {
    "molecule": "COc1ccc(Br)c(CN2CCc3ccccc32)c1OS(=O)(=O)c1ccc(C)cc1",
    "TGI": "> 100 µM"
  },
  {
    "molecule": "CCCC(O)c1cn(-c2cccc(S(=O)(=O)O)c2)nn1 (stereo unspecified)",
    "TGI": "> 100 µM"
  }
]

* * *

tested on: CCRF-CEM leukemia; assay: NCI tumour cell line growth inhibition, 48 h; in the data active = GI50 below about 0.43 µM; inactive = the rest
Classes used: active, inactive

[
  {
    "compound": "O=C1C(N2CCN(CCOCCO)CC2)=C(Cl)C(=O)c2ncccc21",
    "class-label": "inactive"
  },
  {
    "compound": "CC(C)=Cc1cc(C)c2ccc(C)c3c2c1C(C)=C(O)C3=O",
    "class-label": "inactive"
  },
  {
    "compound": "Cc1ccc(S(=O)(=O)n2cc([C@@]3(O)C[C@H](CSC#N)OC3=O)c3ccccc32)cc1",
    "class-label": "inactive"
  },
  {
    "compound": "COc1cc(/C=C/C(=O)CC(=O)/C=C/c2cc(OC)c(O)c(OC)c2)cc(OC)c1O",
    "class-label": "inactive"
  },
  {
    "compound": "CN1CCN(Cc2ccc(NC(=O)c3[nH]ncc3Nc3ncnc4[nH]ccc34)cc2)CC1",
    "class-label": "active"
  },
  {
    "compound": "O=c1cc(-c2ccccc2)[nH]c2c1CCCC2",
    "class-label": "inactive"
  },
  {
    "compound": "FC(F)c1ncc(-c2ccc(C(F)(F)F)cc2)c(NC2CCCCCC2)n1",
    "class-label": "inactive"
  },
  {
    "compound": "OCCCCC#Cc1ccccc1C#Cc1cccnc1",
    "class-label": "inactive"
  },
  {
    "compound": "N#C/C(=C/N1CCN(C(=O)c2ccco2)C1=S)C(=O)Nc1ccc(Cl)cc1",
    "class-label": "inactive"
  },
  {
    "compound": "CN(C)CCN1C(=O)c2cccc3c(/C=C/CN4C(=O)c5cccc6cccc(c56)C4=O)ccc(c23)C1=O",
    "class-label": "active"
  },
  {
    "compound": "O=C1NC(=O)C(c2cccc(Cl)c2)=C1Nc1ccc(Cl)c(C(=O)O)c1",
    "class-label": "inactive"
  },
  {
    "compound": "CCCCCCCC(=O)[O-].CCCCCCCC(=O)[O-].N.N.N.N.[Co+3].[O-][Cl+3]([O-])([O-])[O-]",
    "class-label": "inactive"
  },
  {
    "compound": "COC1=C(OC)C(=O)C(C/C=C(\\C)CC/C=C(\\C)CC/C=C(\\C)CC/C=C(\\C)CC/C=C(\\C)CC/C=C(\\C)CC/C=C(\\C)CC/C=C(\\C)CC/C=C(\\C)CCC=C(C)C)=C(C)C1=O",
    "class-label": "inactive"
  },
  {
    "compound": "COc1cc2nc(N3CCC[C@H](NC4=CC(=O)c5ccccc5C4=O)C3)nc(N)c2cc1OC",
    "class-label": "inactive"
  },
  {
    "compound": "COc1cc(S(=O)(=O)Nc2nc(-c3ccc(N4C(=O)C(C)SC4c4ccccc4O)cc3)cs2)ccc1Cl (configuration not stated)",
    "class-label": "inactive"
  },
  {
    "compound": "O=C1OCC2=C1C(c1cccc(C(F)(F)F)c1)c1cc3c(cc1N2CCO)OCCO3 (configuration not stated)",
    "class-label": "inactive"
  },
  {
    "compound": "C=CC1C(CC2OC(CO)C(O)C(O)C2O)OC=C2C(=O)OCCC21O (configuration not stated)",
    "class-label": "inactive"
  }
]

* * *

test system: HCC-2998 colon; experiment: NCI tumour cell line growth inhibition, 48 h
value-type: TGI (µM)

[
  {
    "compound": "N/N=C(/N)SCCCCCCCCCCS/C(N)=N/N",
    "qualifier-operator": "=",
    "meas-value": 59.6
  },
  {
    "compound": "Oc1cccc2c(Br)ccnc12",
    "qualifier-operator": "=",
    "meas-value": 31.7
  },
  {
    "compound": "Nc1ccc2c(=O)cc(-c3ccc(Br)s3)[nH]c2n1",
    "qualifier-operator": "=",
    "meas-value": 29.7
  },
  {
    "compound": "COc1c(OC)c(OC)c2c(=O)cc(-c3ccc(OC(C)C)cc3)oc2c1OC",
    "qualifier-operator": ">",
    "meas-value": 53.2
  },
  {
    "compound": "COc1cccc2c1OC1c3ccccc3OCC1(O)C2 (stereo unspecified)",
    "qualifier-operator": ">",
    "meas-value": 100
  },
  {
    "compound": "CC(C)OP(=O)(OC(C)C)C(C(C)C)N(C)C(N)=NC#N (stereo unspecified)",
    "qualifier-operator": ">",
    "meas-value": 100
  },
  {
    "compound": "Cc1c(Nc2nccc3cc(CN4CC[C@@H](O)C4)cnc23)cccc1-c1cccc(-c2nc3cc(CN4CC[C@@H](C(=O)O)C4)cc(C#N)c3o2)c1C",
    "qualifier-operator": "=",
    "meas-value": 49
  },
  {
    "compound": "COc1ccc(-c2cc3ccccc3[nH]c2=O)cc1OC",
    "qualifier-operator": ">",
    "meas-value": 100
  },
  {
    "compound": "COc1cc(C2c3cc4c(cc3OC(O)C2C)OCO4)cc(OC)c1OC (stereo unspecified)",
    "qualifier-operator": ">",
    "meas-value": 41.8
  },
  {
    "compound": "O=C1N2CCC[C@H]2CS1(=O)=O",
    "qualifier-operator": "=",
    "meas-value": 32.2
  },
  {
    "compound": "COc1cc(/C=C/C(=O)CC(=O)/C=C/c2cc(OC)c(O)c(OC)c2)cc(OC)c1O",
    "qualifier-operator": "=",
    "meas-value": 11.6
  }
]
